# test_target: CVF-Bb complex (Homo sapiens (Human))
# assay_procedure: biochemical
# Format: biochemical
# measurement_parameters: inhibition of CVF-Bb activity (3 nM CVF-Bb, Human Complement C3 substrate 1 μM, C3a quantified), PBS pH 7.4; read-out: IC50
reported_endpoint: pIC50
Here pIC50 is given on a logarithmic scale as minus log10 of the concentration in mol/L.

## Input Can you share its pIC50? I mean this compound: `COc1cc(C)c2[nH]ccc2c1CN1CC[C@H]2C[C@H]1c1ccc(C(=O)NS(C)(=O)=O)c3ccc(cc13)OCCC/C=C/CO2`
## Output 6.52

* * *

# test_target: CVF-Bb complex (Homo sapiens (Human), UniProt P00751)
# assay_procedure: biochemical
# Format: biochemical
# measurement_parameters: read-out: IC50
Recorded IC50 by entry
The response must be a number in nM with no trailing unit.

smi	reading_unit	observed_measurement
COc1cc(C)c2[nH]ccc2c1CN1CC[C@H]2C[C@H]1c1ccc(C(=O)NS(C)(=O)=O)c3ccc(cc13)OCCCCCCO2	nM	375

## Input Can you share its IC50? I mean this molecule: `COc1cc(C)c2[nH]ccc2c1CN1CC[C@H]2C[C@H]1c1ccc(C(=O)O)cc1OCCCCCO2`
## Output 397

## Input Can you share its IC50? I mean this molecule: `COc1cc(C)c2[nH]ccc2c1CN1CC[C@H]2C[C@H]1c1ccc(C(=O)O)c3ccc(cc13)OCC/C=C/CO2`
## Output 251

* * *

Recorded pIC50 by entry
# test_target: CVF-Bb complex (Homo sapiens (Human), UniProt P00751)
# assay_procedure: biochemical
# Format: biochemical
Here pIC50 is given on a logarithmic scale as minus log10 of the concentration in mol/L.

Worked cases, pIC50 given:
molecule	test_target	reported_endpoint	observed_measurement
CCO[C@@H]1CCN(Cc2c(OC)cc(C)c3[nH]ccc23)[C@H](c2ccc(C(=O)O)cc2OC)C1 [Ex. 4]	CVF-Bb complex (Homo sapiens (Human), UniProt P00751)	pIC50	5.45
COc1cc(C)c2[nH]ccc2c1CN1CC[C@H]2C[C@H]1c1ccc(C(=O)NS(C)(=O)=O)cc1OCCCCCO2 [Ex. 40]	CVF-Bb complex (Homo sapiens (Human), UniProt P00751)	pIC50	6.51
COc1cc(C)c2[nH]ccc2c1CN1CC[C@H]2C[C@H]1c1ccc(C(=O)O)cc1/C=C/CCCCCCO2 [Ex. 38]	CVF-Bb complex (Homo sapiens (Human), UniProt P00751)	pIC50	6.80
CCO[C@H]1CCN(Cc2c(OC)cc(C)c3[nH]ccc23)[C@H](c2ccc(C(=O)O)cc2OCCNC(C)=O)C1 [Ex. 6]	CVF-Bb complex (Homo sapiens (Human), UniProt P00751)	pIC50	6.50

## Input Can you share its pIC50? I mean this molecule: CCO[C@H]1CCN2Cc3c(cc(C)c4[nH]ccc34)OCCCCCCCCOc3cc(C(=O)O)ccc3[C@@H]2C1 [Ex. 30]
## Output 5.31

## Input Can you share its pIC50? I mean this molecule: COc1cc(C)c2[nH]ccc2c1CN1CC[C@H](OCCNC(C)=O)C[C@H]1c1ccc(C(=O)O)cc1 [Compar. Ex. 1, reference compound]
## Output 6.87

## Input Can you share its pIC50? I mean this molecule: CCO[C@H]1CCN(Cc2c(OC)cc(C)c3[nH]ccc23)[C@H](c2ccc(C(=O)NS(=O)(=O)CC)cc2)C1 [Ex. 44]
## Output 6.86

## Input Can you share its pIC50? I mean this molecule: COc1cc(C)c2[nH]ccc2c1CN1CC[C@H]2C[C@H]1c1ccc(C(=O)NS(=O)(=O)C(C)C)cc1OCCCCCCO2 [Ex. 47]
## Output 6.19

## Input Can you share its pIC50? I mean this molecule: COc1cc(C)c2[nH]ccc2c1CN1CC[C@H]2C[C@H]1c1ccc(C(=O)NS(C)(=O)=O)cc1OCCCCCCO2 [Ex. 33]
## Output 7.02

## Input Can you share its pIC50? I mean this molecule: CCO[C@H]1CCN(Cc2c(OC)cc(C)c3[nH]ccc23)[C@H](c2ccc(C(=O)NS(=O)(=O)CCNC(C)=O)cc2)C1 [Compar. Ex. 2, reference compound]
## Output 6.40

## Input Can you share its pIC50? I mean this molecule: COc1cc(C)c2[nH]ccc2c1CN1CC[C@H]2CC1c1ccc(C(=O)O)cc1CCCCCCCO2 [Ex. 39]
## Output 6.60

* * *

# test_target: CVF-Bb complex (Homo sapiens (Human))
# assay_procedure: biochemical
# Type: biochemical
# Procedure: CVF-Bb complex, prepared from purified cobra venom factor, (3 nM) is incubated with a compound of the disclosure at various concentrations for 10 minutes at room temperature in PBS (pH 7.4) containing 10 mM MgCl2 and 0.05% (w/v) CHAPS. Human Complement C3 substrate is added to a final concentration of 1 μM. […] The product of the reaction, C3a, is quantified by means of an enzyme-linked-immunosorbent assay and/or denaturing gel electrophoresis (SDS-PAGE). […]
pIC50: −log10 of the molar value.
Recorded pIC50 by entry

Worked cases, pIC50 given:
compound	observed_measurement
Cc1cc2c(c3cc[nH]c13)CN1CC[C@@H](C[C@H]1c1ccc(C(=O)O)cc1)OCCCCCCCCO2 [Ex. 35]	< 5.00
Cc1cc2c(c3cc[nH]c13)CN1CC[C@@H](C[C@H]1c1ccc(C(=O)O)cc1)OCCCCCCCCCO2 (racemic) [Ex. 34]	< 5.00

# evaluate next
## Input Can you share its pIC50? I mean this compound: Cc1cc2c(c3cc[nH]c13)CN1CC[C@@H](C[C@H]1c1ccc(C(=O)O)cc1)OCCCCCCCO2 [Ex. 25]
## Output < 5.00
